Biological target: Tyrosine-protein phosphatase non-receptor type 11 (Homo sapiens)
Sequence (Q06124 whole entry): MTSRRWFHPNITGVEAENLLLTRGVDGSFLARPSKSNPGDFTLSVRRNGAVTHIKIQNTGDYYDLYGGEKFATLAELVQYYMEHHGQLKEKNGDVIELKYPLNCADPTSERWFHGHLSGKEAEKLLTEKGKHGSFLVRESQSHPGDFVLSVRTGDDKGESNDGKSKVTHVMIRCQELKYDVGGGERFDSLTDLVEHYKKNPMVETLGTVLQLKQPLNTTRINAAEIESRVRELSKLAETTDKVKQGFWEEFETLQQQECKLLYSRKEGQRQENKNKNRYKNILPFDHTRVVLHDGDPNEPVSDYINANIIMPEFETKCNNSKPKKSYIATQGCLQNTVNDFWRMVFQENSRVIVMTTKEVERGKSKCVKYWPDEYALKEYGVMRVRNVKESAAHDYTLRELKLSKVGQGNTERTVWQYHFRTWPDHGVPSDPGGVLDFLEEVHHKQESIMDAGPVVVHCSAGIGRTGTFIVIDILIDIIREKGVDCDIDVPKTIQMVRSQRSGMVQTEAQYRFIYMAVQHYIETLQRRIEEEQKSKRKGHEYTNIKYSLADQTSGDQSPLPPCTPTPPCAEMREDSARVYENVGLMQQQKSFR
Reported endpoint: pIC50
Numbers only, as −log10 of the molar value.

Task item: Please indicate pIC50 recorded for Cc1nc(N2CCC3(CC2)Cc2ccccc2[C@H]3N)n2ccnc2c1Sc1cccnc1C(F)(F)F
Reply: 8.20
